Source listed as patent US10301305B2.

Kindly state pIC50 for each of the entries shown.
- testSystem: S. aureus DltA (Staphylococcus aureus (strain NCTC 8325 / PS 47), UniProt Q2FZW6)
- testDetails: in vitro DltA activity assay (luminescence), S. aureus DltA
- Type: biochemical
- studyConditions: recombinant DltA, 30 min pre-incubation, 0.5 mM D-Alanine, 0.5-5 μM ATP; read-out: S. aureus DltA IC50
One number for each entry, as −log10 of the molar value.

Known pIC50 results, listed for orientation:
[[record]]
compound = "CN(C)CCN(CCO)c1cc(-c2ccc3c(c2)ncn3C2CCCCC2)c2nc[nH]c2c1C(N)=O"
quantitativeresult = 7.12

[[record]]
compound = "CN(C)CC1CCCN1c1cc(-c2ccc3c(c2)ncn3C2CCCCC2)c2nc[nH]c2c1C(N)=O (stereo not shown)"
quantitativeresult = 7.24

[[record]]
compound = "O=C(O)c1c(N2CC[C@H](CO)C2)cc(-c2ccc3c(c2)ncn3C2CCCCC2)c2nc[nH]c12"
quantitativeresult = 6.60


Prompt line: Fill in: pIC50 of `OCC1CCN(c2cc(-c3ccc4c(c3)ncn4C3CCCCC3)c3nc[nH]c3n2)CC1` is ___
Response line: 6.70
